This section presents binders with their documented hGLP-1R Potency, 1% HSA, EC50 [pM] values.
molecular target: human GLP-1 receptor (human, UniProt P43220 24-463); experiment: cell-based or functional assay
Numbered stars: 1 amine (or outer) side, 2 acyl side, 3 side chain; on linkers, the order of the positions; unused ones are H or OH. Square brackets hold non-standard residues; d marks the D form. Side chains are listed from the residue outwards. * marks the point of attachment. C20 diacid = O=C(O)CCCCCCCCCCCCCCCCCCC(=O)*; C18 diacid = O=C(O)CCCCCCCCCCCCCCCCC(=O)*; γGlu = O=C(O)[C@H](CCC(=O)[*:2])N[*:1]; Chem. 28 = not defined here; Chem. 29 = not defined here; AEEA = NCCOCCOCC(=O)O; Aib = CC(C)(N)C(=O)O

BINDER | UNIT DESCRIPTOR | hGLP-1R Potency, 1% HSA, EC50 [pM]
Compound 75 (peptide) peptide: H[Aib]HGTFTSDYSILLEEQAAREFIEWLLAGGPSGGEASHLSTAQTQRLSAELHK([AEEA-AEEA-γGlu-C18 diacid])LATLPRTETGSGSP-NH2 | pM | 25.2
Compound 72 (peptide) peptide: Y[Aib]EGTFTSDYSILLEEQAAREFIEWLLAGGPSRGAPPPSGGGEASHLSTQTQGRLSAELHK([AEEA-AEEA-γGlu-C18 diacid])LATLPRTETGSGSP-NH2 | pM | 41.7
Compound 112 (peptide) peptide: H[Aib]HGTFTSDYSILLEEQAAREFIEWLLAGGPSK([γGlu-C18 diacid])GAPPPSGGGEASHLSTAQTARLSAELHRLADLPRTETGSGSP-NH2 | pM | 336
Compound 11 (reading uncertain) peptide: Y[Aib]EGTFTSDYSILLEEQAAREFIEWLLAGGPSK(Chem. 29)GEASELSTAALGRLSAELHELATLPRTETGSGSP-NH2 | pM | 204
Compound 80 (peptide) peptide: Y[Aib]EGTFTSDYSILLEEQAAREFIEWLLAGGPSSGEASHLSTAQTQRLSAELHRLK([AEEA-AEEA-γGlu-C18 diacid])TLPRTETGSGSP-NH2 | pM | 111
Compound 48 (reading uncertain) peptide: Y[Aib]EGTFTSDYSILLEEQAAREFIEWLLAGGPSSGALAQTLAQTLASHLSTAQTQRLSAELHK(Chem. 28)LATLPRTETGSGSP-NH2 | pM | 105
Compound 110 (not fully specified) peptide: Y[Aib]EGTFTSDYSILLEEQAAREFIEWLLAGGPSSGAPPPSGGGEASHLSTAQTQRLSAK([AEEA-AEEA-γGlu-C20 diacid])LHRLATLPRTETGSGSP-NH2 | pM | 169
Compound 26 (reading uncertain) peptide: Y[Aib]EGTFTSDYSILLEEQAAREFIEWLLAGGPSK(Chem. 28)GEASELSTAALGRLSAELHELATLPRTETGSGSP-NH2 | pM | 1680
